These data points were gathered from ChEMBL document CHEMBL3217566.

System: Enterococcus faecium
Test: Inhibition of Enterococcus faecium D63r PBP5 assessed as assessed as residual activity at 1 mM after 4 hrs by fluorescence spectroscopy in presence of fluorescein-labeled ampicillin
readout kind: Activity (%)
// units = %; emit number, no label

# count of solved cases: 5
C=CCCCCC(=O)N[C@H]1CN(C(=O)CCCC=C)C1=O 21
C=CCCCC(=O)N[C@H]1CN(C(=O)CCC=C)C1=O 14
C=CCCCCC(=O)N[C@H]1CN(C(=O)CCCCC=C)C1=O 23
C=CCCCCC(=O)N[C@H]1CN(C(=O)CCC=C)C1=O 14
CCCCC(=O)N1C[C@H](NC(=O)CCCCCCCCCCC(=O)N[C@H]2CN(C(=O)CCCC)C2=O)C1=O 3

Now, please, on to the next molecule.
// lookup Activity for C=CCCC(=O)N1C[C@H](NC(=O)CCCCCC)C1=O
6
